Test system: Plasmodium falciparum
Test: Antiparasitic activity against chloroquine-sensitive Plasmodium falciparum NF54 in erythrocytes by [3H]hypoxanthine uptake
Type: functional, organism-based
result_type: IC50
Your answer should be a number followed by the unit of measure.

CC(C)=CC(=O)NCCCN1CCN(CCCNc2ccnc3cc(Cl)ccc23)CC1 = 23 nM
CCCCCC(=O)NCCCN1CCN(CCCNc2ccnc3cc(Cl)ccc23)CC1 = 338 nM
O=C(CCCc1c[nH]c2ccccc12)NCCCN1CCN(CCCNc2ccnc3cc(Cl)ccc23)CC1 = 15 nM
O=C(NCCCN1CCN(CCCNc2ccnc3cc(Cl)ccc23)CC1)c1cccc(C(F)(F)F)c1 = 37 nM
O=C(NCCCN1CCN(CCCNc2ccnc3cc(Cl)ccc23)CC1)C(c1ccccc1)c1ccccc1 = 25 nM

# return IC50 for each item in the list
1. COc1cccc(C(=O)NCCCN2CCN(CCCNc3ccnc4cc(Cl)ccc34)CC2)c1
2. O=C(NCCCN1CCN(CCCNc2ccnc3cc(Cl)ccc23)CC1)c1cc(F)cc(F)c1
3. O=C(Cc1ccc(Cl)cc1Cl)NCCCN1CCN(CCCNc2ccnc3cc(Cl)ccc23)CC1
4. Cc1ccccc1C(=O)NCCCN1CCN(CCCNc2ccnc3cc(Cl)ccc23)CC1
5. CC(C)CC(=O)NCCCN1CCN(CCCNc2ccnc3cc(Cl)ccc23)CC1
6. CCOc1ccc(C(=O)NCCCN2CCN(CCCNc3ccnc4cc(Cl)ccc34)CC2)cc1

10 nM
10 nM
8 nM
10 nM
13 nM
8 nM

Origin of the recorded values: ChEMBL document CHEMBL1147171
